Data origin, for the record: patent US20040156861A1

Assayed system: T1, HLA-A*0201 (human)
T1 construct: also called HLA-A2.1; HLA-A2
Run description: T2 cell HLA-A*0201 stabilization, flow cytometry with mAb BB7.2
Quantity name: Fluorescence Index (HLA-A*0201 stabilization), 50 µM peptide
One number for each entry.

Answered cases to consult:
KTAGQYWQV (synthetic; alanine at position 3) [gp100 154-162 epitope-analogue KTAGQYWQV] | 1.17
KTWGQYWAV (synthetic; alanine at position 8) [gp100 154-162 epitope-analogue KTWGQYWAV] | 1.72
KTWGAYWQV (synthetic; alanine at position 5) [gp100 154-162 epitope-analogue KTWGAYWQV] | 1.59
KTWGQAWQV (synthetic; alanine at position 6) [gp100 154-162 epitope-analogue KTWGQAWQV] | 1.42
KTWGQYAQV (synthetic; alanine at position 7) [gp100 154-162 epitope-analogue KTWGQYAQV] | 1.31
KTWGQYWQA (synthetic; alanine at position 9) [gp100 154-162 epitope-analogue KTWGQYWQA] | 1.08

Consider the following items and state reported Fluorescence Index (HLA-A*0201 stabilization), 50 µM peptide for each.
1. KAWGQYWQV (synthetic; alanine at position 2) [gp100 154-162 epitope-analogue KAWGQYWQV]
2. ATWGQYWQV (synthetic; alanine at position 1) [gp100 154-162 epitope-analogue ATWGQYWQV]

**Result**
1. 1.57
2. 1.94
